Catalogue of compounds with associated IC50
# EXPERIMENTAL_TARGET: CYP2C9 (Homo sapiens, UniProt P11712)
# Sequence (P11712 whole entry): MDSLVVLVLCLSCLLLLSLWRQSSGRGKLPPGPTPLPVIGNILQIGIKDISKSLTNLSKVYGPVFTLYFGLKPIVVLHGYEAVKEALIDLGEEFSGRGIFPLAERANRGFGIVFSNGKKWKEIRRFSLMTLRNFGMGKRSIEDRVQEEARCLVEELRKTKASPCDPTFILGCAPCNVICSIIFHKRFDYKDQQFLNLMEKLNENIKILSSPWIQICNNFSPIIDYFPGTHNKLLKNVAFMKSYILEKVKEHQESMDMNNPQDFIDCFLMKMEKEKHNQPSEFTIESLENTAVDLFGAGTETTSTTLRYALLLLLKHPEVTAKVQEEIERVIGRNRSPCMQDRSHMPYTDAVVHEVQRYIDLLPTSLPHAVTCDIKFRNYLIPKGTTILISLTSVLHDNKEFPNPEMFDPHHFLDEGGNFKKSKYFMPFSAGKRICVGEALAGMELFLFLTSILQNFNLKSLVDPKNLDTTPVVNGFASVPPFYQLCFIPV
# ASSAY_PROCEDURE: CYP2C9 inhibition (fluorescent substrate MFC)
# Type: in vitro ADME
# CONDITIONS: read-out: Cyp IC50 (μM) 2C9

{"COMPOUND": "O=C(c1c(F)ccc(NS(=O)(=O)c2cc(F)ccc2F)c1F)c1c[nH]c2ncc(-c3ccc4[nH]ncc4c3)cc12 [P-0002]", "IC50": "< 5 µM"}
{"COMPOUND": "CNC(=O)n1ncc2cc(-c3cnc4[nH]cc(C(=O)c5c(F)ccc(NS(=O)(=O)c6cc(F)ccc6F)c5F)c4c3)ccc21 [P-0003]", "IC50": "< 5 µM"}
{"COMPOUND": "Cc1ccc(-c2cnc3[nH]cc(C(=O)c4c(F)ccc(NS(=O)(=O)c5cc(F)ccc5F)c4F)c3c2)cn1 [P-1408]", "IC50": "5 to 10 µM"}
{"COMPOUND": "CCCS(=O)(=O)Nc1ccc(F)c(C(=O)c2c[nH]c3ncc(-c4ccc5cccnc5c4)cc23)c1F [P-0033]", "IC50": "> 10 µM"}
{"COMPOUND": "CCCS(=O)(=O)Nc1ccc(F)c(C(=O)c2c[nH]c3ncc(-c4ccc5nn(C)cc5c4)cc23)c1F [P-0010]", "IC50": "> 10 µM"}

Need IC50, item CCCS(=O)(=O)Nc1ccc(F)c(C(=O)c2c[nH]c3ncc(-c4cnn(C5CCN(C(=O)OC(C)(C)C)CC5)c4)cc23)c1F [P-1001]
> 10 µM

Data request, read-out IC50, for CCCS(=O)(=O)Nc1ccc(F)c(C(=O)c2c[nH]c3ncc(-c4ccc5cn(C)nc5c4)cc23)c1F [P-0011]
5 to 10 µM

Hello, the source for this data is patent US9440969B2, in case you need it.
